Tested on: murine HBKs (hair bulb keratinocytes)
Assay: HBK growth test (Example 5, AlamarBlue)
Format: cell-based, mouse
Conditions: 10 μM, 4 days culture
In this section, each of the compounds is paired with its reported cell growth effect as compared with that on the control.
measuredQuantity: cell growth effect as compared with that on the control (%)

compound: CC[C@H](C)[C@H](NC(=O)[C@@H]1CCCN1C(=O)CN)C(=O)NCC(=O)O (racemic) [GPIG, glycyl-prolyl-isoleucyl-glycine]
recordedValue: 133
--
compound: CC[C@H](C)[C@H](NC(=O)[C@@H]1CCCN1)C(=O)NCC(=O)O (racemic) [PIG, prolyl-isoleucyl-glycine]
recordedValue: 132
--
compound: CC[C@H](C)[C@H](NC(=O)[C@@H]1CCCN1)C(=O)NCC(=O)N[C@@H](CO)C(=O)O (racemic) [PIGS, prolyl-isoleucyl-glycyl-serine]
recordedValue: 110
--
compound: CC[C@H](C)[C@H](N)C(=O)NCC(=O)N[C@@H](CO)C(=O)O (racemic) [IGS, isoleucyl-glycyl-serine]
recordedValue: 124
